These entries and their values trace back to PubChem BioAssay AID504523.

Field: inhibition. Provide a value for each of the molecules that follow.
- Target System: Kelch-like ECH-associated protein 1 (Homo sapiens)
- Assay Name: Keap1-Nrf2 protein-protein interaction inhibitors, primary screen, biochemical, fluorescence polarization, single point (AID 504523);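 note: human Keap1 Kelch domain with fluorescein labeled Nrf2 9mer peptide probe; 0% = neutral control wells and 100% = peptide positive control; higher means more block of Keap1 binding to Nrf2 peptide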
- Experimental Parameters: Keap1 Kelch-Nrf2 peptide fluorescence polarization, 1536-well; at 9.4 µM; active compounds read high
Out of some 340,000 compounds screened, about 490 (0.14%) were called active. The entries come from a sample that favours actives as a whole.
Give bare numbers, in %.

Sample records with inhibition:
Enquiry: So what's the measured inhibition for this one? Oc1ccc(-c2nc3ccccc3nc2-c2ccc(O)cc2O)c(O)c1
Return: 5.29

Enquiry: GET /values?readout=inhibition&item= N#CCc1c[nH]c2ccc([N+](=O)[O-])cc12
Return: 0.344

Enquiry: Need inhibition of CC(C)(C)OC(=O)C[C@@H]1C/C=C\C[C@@H](CC(=O)N[C@@H](CO)Cc2ccccc2)C(=O)N2CCC[C@H]2COC1=O , thanks.
Return: 5.12

Enquiry: Need inhibition, item CCOC(=O)N1CCN(C(=O)COC(=O)c2cccc(S(C)(=O)=O)c2)CC1
Return: 1.11

I have 7 molecules here; please give me inhibition for each one.
1. Cc1ccc(OC(=O)c2cncc(Br)c2)c(C)c1
2. CC(C)C[C@H](NC(=O)C1CCC(CNC(=O)[C@@H]2CCCN2C(=O)OC(C)(C)C)CC1)C(=O)O (stereo partly specified)
3. Cc1ccc(NC(=O)CSc2sc3c(O)cc(=O)[nH]c3c2C#N)cc1C
4. Oc1cccc(CCc2ccccn2)c1
5. O=C(CNCc1ccco1)Nc1cc(S(=O)(=O)N2CCOCC2)ccc1N1CCCC1
6. CC1(C)Cc2ccccc2-c2nnc(-c3cccc(O)c3)n21
7. CC(C)(C)c1ccc(CCC2OCC(CN3CCOCC3)O2)cc1 (stereo unspecified)

Return:
[5.58, 0.427, -7.74, 1.31, -2.82, -0.455, 3.61]
